Origin of measurements: patent US9828352B2

Item-by-item account of IC50
# test_target: rat FAAH (Rattus norvegicus, UniProt P97612)
# Sequence (P97612 1-579): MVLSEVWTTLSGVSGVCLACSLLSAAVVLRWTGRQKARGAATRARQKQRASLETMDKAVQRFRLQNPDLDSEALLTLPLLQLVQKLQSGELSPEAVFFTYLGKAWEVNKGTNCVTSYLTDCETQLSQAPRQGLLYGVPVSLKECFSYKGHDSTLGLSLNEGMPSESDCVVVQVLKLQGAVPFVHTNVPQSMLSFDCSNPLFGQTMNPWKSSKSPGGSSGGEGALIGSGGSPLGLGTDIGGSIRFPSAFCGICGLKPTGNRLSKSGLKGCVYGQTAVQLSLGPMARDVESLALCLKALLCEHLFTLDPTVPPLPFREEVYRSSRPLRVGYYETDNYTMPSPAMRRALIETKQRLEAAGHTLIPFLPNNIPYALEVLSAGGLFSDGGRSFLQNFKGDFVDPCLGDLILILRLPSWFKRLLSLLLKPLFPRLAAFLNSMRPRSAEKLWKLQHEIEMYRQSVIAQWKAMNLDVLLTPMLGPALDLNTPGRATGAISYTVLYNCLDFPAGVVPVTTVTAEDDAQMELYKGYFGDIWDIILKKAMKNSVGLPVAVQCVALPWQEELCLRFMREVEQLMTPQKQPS
endpoint_label: IC50 (nM)

>>> numeric_readout("NC(=O)c1cccc(-c2cccc(OC(=O)NCCCN3CCN(c4cccc(Cl)c4Cl)CC3)c2)c1")
0.11
>>> numeric_readout("O=C(NCCCN1CCN(c2ccccc2)CC1)Oc1cccc(-c2ccccc2)c1")
3
>>> numeric_readout("COc1ccccc1N1CCN(CCCCNC(=O)Oc2cccc(-c3cccc(C(N)=O)c3)c2)CC1")
0.94
